Listing of recorded GI50 by entry.
Test system: A549 NSCLC
experimentNotes: NCI tumour cell line growth inhibition, 48 h

Examples from the recorded data:
[[record]]
compound = "CC(CN1CCN(C)CC1)CN1c2ccccc2Sc2ccc(C(F)(F)F)cc21 (centres undefined)"
testedon = "A549 NSCLC"
experimentalreadout = "GI50"
testvalue = "1.85 µM"

[[record]]
compound = "Cn1ccnc1C(=O)/C=C/c1ccc(CC(=O)Nc2ccc(S(F)(F)(F)(F)F)cc2)cc1"
testedon = "A549 NSCLC"
experimentalreadout = "GI50"
testvalue = "3.32 µM"

[[record]]
compound = "[C-]#[O+].[C-]#[O+].[C-]#[O+].[C-]#[O+].[Ir].[Ir].[O-]c1ccc2ccccc2c1C=Nc1ccc(N=Cc2c([O-])ccc3ccccc23)cc1"
testedon = "A549 NSCLC"
experimentalreadout = "GI50"
testvalue = "> 100 µM"


Short answer on A549 NSCLC for CC(C)C[C@H](NC(=O)[C@H]1O[C@@H]1C(=O)O)C(=O)NCCc1ccc(O)cc1 , GI50: > 100 µM
